# PROTOCOL_NOTES: Phase 1 four-period crossover study of relative bioavailability and food effect, Compound 1 Capsules vs Oral Solution, plasma PK
# Format: in vivo, human
# CONDITION_INFO: human, plasma, po, 30 mg, single 30-mg oral dose, Oral Solution, fasted, healthy subjects, plasma; read-out: AUC0-inf, median
MEASURED_METRIC: AUC(0-inf)
Answer shape: numeric part, then the unit.

Returns the measured AUC(0-inf) for the input compound. Input: C[C@@]1(O)CC[C@H]2[C@H](CC[C@@H]3[C@@H]2CC[C@]2(C)[C@@H](C(=O)Cn4cc(C#N)cn4)CC[C@@H]32)C1
816 ng·h/mL

* * *

# PROTOCOL_NOTES: Phase 1 four-period crossover study of relative bioavailability and food effect, Compound 1 Capsules vs Oral Solution, plasma PK
# Assay type: in vivo, human
# CONDITION_INFO: human, plasma, po, 30 mg, single 30-mg oral dose, Oral Solution, fasted, healthy subjects, plasma; read-out: Cmax, median
MEASURED_METRIC: Cmax (ng/mL)
Numbers only, in ng/mL.

Which Cmax value belongs to C[C@@]1(O)CC[C@H]2[C@H](CC[C@@H]3[C@@H]2CC[C@]2(C)[C@@H](C(=O)Cn4cc(C#N)cn4)CC[C@@H]32)C1 ?
115

* * *

# PROTOCOL_NOTES: Phase 1 four-period crossover study of relative bioavailability and food effect, Compound 1 Capsules vs Oral Solution, plasma PK
# Assay type: in vivo, human
# CONDITION_INFO: human, plasma, po, 30 mg, single 30 mg oral dose, Capsules, fed [high-fat meal], healthy subjects, plasma; read-out: AUC0-inf, arithmetic mean
MEASURED_METRIC: AUC(0-inf)
Output should be the measured figure followed by the unit it is expressed in.

If you can, please state the reported AUC(0-inf) value of C[C@@]1(O)CC[C@H]2[C@H](CC[C@@H]3[C@@H]2CC[C@]2(C)[C@@H](C(=O)Cn4cc(C#N)cn4)CC[C@@H]32)C1 [Compound 1] .
896 ng·h/mL

* * *

# PROTOCOL_NOTES: Phase 1 four-period crossover study of relative bioavailability and food effect, Compound 1 Capsules vs Oral Solution, plasma PK
# Format: in vivo, human
# CONDITION_INFO: human, plasma, po, 30 mg, single 30-mg oral dose, Oral Solution, fasted, healthy subjects, plasma; read-out: Cmax, geometric mean
# Experimental: In a Phase 1, single-center, open-label, four-period, two-sequence crossover study, Compound 1 capsules were evaluated for safety, tolerability, and relative bioavailability. Twelve (12) subjects completed all four periods of the study; subjects who replaced discontinued subjects were allocated to the same randomization sequence as those discontinued. Up to 24 subjects were recruited into the study. […] The plasma samples were kept frozen at approximately −70 to −80° C. until analyzed. […]
MEASURED_METRIC: Cmax (µg/mL)
Numbers only, in µg/mL.

Can you look up the measured Cmax of C[C@@]1(O)CC[C@H]2[C@H](CC[C@@H]3[C@@H]2CC[C@]2(C)[C@@H](C(=O)Cn4cc(C#N)cn4)CC[C@@H]32)C1 for me?
0.114

* * *

# PROTOCOL_NOTES: Phase 1 four-period crossover study of relative bioavailability and food effect, Compound 1 Capsules vs Oral Solution, plasma PK
# Type: in vivo, human
# CONDITION_INFO: human, plasma, po, 30 mg, single 30-mg oral dose, Oral Solution, fasted, healthy subjects, plasma; read-out: AUC0-t, arithmetic mean
MEASURED_METRIC: AUC(0-t)
Returns: string containing the numeric result and its unit.

Please look up its AUC(0-t): C[C@@]1(O)CC[C@H]2[C@H](CC[C@@H]3[C@@H]2CC[C@]2(C)[C@@H](C(=O)Cn4cc(C#N)cn4)CC[C@@H]32)C1
795 ng·h/mL

* * *

# PROTOCOL_NOTES: Phase 1 four-period crossover study of relative bioavailability and food effect, Compound 1 Capsules vs Oral Solution, plasma PK
# Assay type: in vivo, human
# CONDITION_INFO: human, plasma, po, 30 mg, single 30-mg oral dose, Capsules, fasted, healthy subjects, plasma; read-out: AUC0-inf, geometric mean
MEASURED_METRIC: AUC(0-inf) (µg·h/mL)
Numbers only, in µg·h/mL.

Report AUC(0-inf) for C[C@@]1(O)CC[C@H]2[C@H](CC[C@@H]3[C@@H]2CC[C@]2(C)[C@@H](C(=O)Cn4cc(C#N)cn4)CC[C@@H]32)C1 please.
0.64

* * *

# PROTOCOL_NOTES: Phase 1 four-period crossover study of relative bioavailability and food effect, Compound 1 Capsules vs Oral Solution, plasma PK
# Type: in vivo, human
# CONDITION_INFO: human, plasma, po, 30 mg, single 30-mg oral dose, Oral Solution, fasted, healthy subjects, plasma; read-out: t1/2, median (converted)
MEASURED_METRIC: half-life (h)
One number for each entry, in h.

Item C[C@@]1(O)CC[C@H]2[C@H](CC[C@@H]3[C@@H]2CC[C@]2(C)[C@@H](C(=O)Cn4cc(C#N)cn4)CC[C@@H]32)C1 [Compound 1] has what recorded half-life?
13.3

* * *

# PROTOCOL_NOTES: Phase 1 four-period crossover study of relative bioavailability and food effect, Compound 1 Capsules vs Oral Solution, plasma PK
# Assay type: in vivo, human
# CONDITION_INFO: human, plasma, po, 30 mg, single 30 mg oral dose, Capsules, fed [high-fat meal], healthy subjects, plasma; read-out: Cmax, arithmetic mean
MEASURED_METRIC: Cmax (ng/mL)
Give bare numbers, in ng/mL.

Name the recorded Cmax for C[C@@]1(O)CC[C@H]2[C@H](CC[C@@H]3[C@@H]2CC[C@]2(C)[C@@H](C(=O)Cn4cc(C#N)cn4)CC[C@@H]32)C1 .
64.4
